# reported %Inh; entries follow
# Test system: AMPK-alpha1
# Construct: gene PRKAA1
# CONDITION_SET: concentration: 1 μM, replicates: in singlicate; n = 1;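 also: KINOMEscan kinase panel screen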
Write the quantity with the unit trailing the number.

- COMPOUND: "COc1ccc(-c2cc3c(C)nc(N)nc3n([C@H]3CC[C@H](O)CC3)c2=O)cn1"
  ASSAY_SYSTEM: "AMPK-alpha1"
  ASSAY_RESULT: "0%"
- COMPOUND: "CCCNC(=O)Nc1ccc(Oc2ncnc3ccn(C)c23)cc1"
  ASSAY_SYSTEM: "AMPK-alpha1"
  ASSAY_RESULT: "0%"
- COMPOUND: "O=c1cc(N2CCOCC2)nc2n(Cc3ccc(F)c(Cl)c3)ccn12 [GSK2297099]"
  ASSAY_SYSTEM: "AMPK-alpha1"
  ASSAY_RESULT: "0%"
- COMPOUND: "COc1cccc(-n2cnc3c(N)ncnc32)c1 [SKF-97416]"
  ASSAY_SYSTEM: "AMPK-alpha1"
  ASSAY_RESULT: "2%"

GET /values?readout=%Inh&item= O=C(Nc1n[nH]c2nc(-c3ccccc3)c(Cl)cc12)C1CC1 [SB-734909]
0%

###

# System: RIPK2
# CONDITION_SET: concentration: 1 μM, replicates: in singlicate; n = 1
Rule: measured %Inh below 2% gets 1 (yes); anything equal to or greater than 2% gets 0 (no).

See these solved cases before continuing.
- COMPOUND: "CCc1ccc(-c2ccc3c(c2)-c2nn(C)cc2S(=O)(=O)N3C)cc1"
  ASSAY_SYSTEM: "RIPK2"
  LABEL_VALUE: "1 (yes)"
- COMPOUND: "COc1ccc(Nc2nccc(N3CCC(NS(=O)(=O)c4ccc(NC(C)=O)cc4)C3)n2)cc1 (stereo not drawn) [GSK1379729]"
  ASSAY_SYSTEM: "RIPK2"
  LABEL_VALUE: "0 (no)"

Report whether reported %Inh is lower than 2% (strictly) for CCn1c(-c2ccoc2)nc2cnccc21 [SB-733887]
0 (no)

Does the reported %Inh of the following compound sit strictly below 2%? O=C(Nc1n[nH]c2cc(-c3ccccc3F)ccc12)C1CC1 [SB-733371]
0 (no)

###

# Test system: MAP4K5
# CONDITION_SET: concentration: 1 μM, replicates: in singlicate; n = 1
REPORTED_PROPERTY: %Inh (%)
Provide the reading as a plain figure in %.

Please review the entries below; each comes with its answer.
- COMPOUND: "Nc1ncnc2c1ncn2-c1cccc2ccccc12 [SKF-97184]"
  MEASUREMENT_UNITS: "%"
  %Inh: 0
- COMPOUND: "CCc1nc(-c2cccc(C)c2)c(-c2ccncc2)s1"
  MEASUREMENT_UNITS: "%"
  %Inh: 0
- COMPOUND: "Cc1cccc(-c2nc(Nc3ccc4c(cnn4C)c3)c3ccccc3n2)n1 [GW876731]"
  MEASUREMENT_UNITS: "%"
  %Inh: 0
- COMPOUND: "CCn1c(-c2ccoc2)nc2cnccc21 [SB-733887]"
  MEASUREMENT_UNITS: "%"
  %Inh: 5
- COMPOUND: "CCC(=O)c1c(-c2ccccc2)c2cc(Cl)ccc2c(=O)n1Cc1cc(S(C)(=O)=O)n(CC(F)F)n1"
  MEASUREMENT_UNITS: "%"
  %Inh: 0

Any idea what %Inh came out for CCCC(=O)Nc1n[nH]c2ncc(-c3cccc4ccccc34)cc12 [SB-642057] on MAP4K5?
7

Lookup: %Inh / MAP4K5 / Cc1ccc(Oc2ccc(Nc3ncnc4cc[nH]c34)cc2C)cn1
0

Tell me reported %Inh for CN1C(=O)C(Nc2ccccc2)=C(c2ccccc2)C1=O [SB-300079] , tested with MAP4K5.
0

Could you share what %Inh was measured for CCC(=O)c1c(-c2ccccc2)c2cc(Cl)ccc2c(=O)n1Cc1cc(S(C)(=O)=O)n(CC(N)=O)n1 , tested on MAP4K5?
0

Param readout= %Inh; system= MAP4K5; entry= COc1cc2nccc(Nc3ccc(OCc4ccc(NC(C)=O)cc4)cc3)c2cc1OC.Cl [GW440135] ; returns value.
0
